experiment: Stability in presence alkaline phosphatase after 20 mins by HPLC-MS analysis
reportedMetric: remaining at 20 min
The answer consists of two parts: a number and, after it, its unit.

In: Can you share its remaining at 20 min? I mean this compound: "C=C(C)CCSP(=O)([O-])OP(=O)([O-])[O-].[Na+].[Na+].[Na+]"
Out: 48%

====

experiment: Stability in presence alkaline phosphatase after 60 mins by HPLC-MS analysis
reportedMetric: remaining at 1 h (%)
The figure you give is taken to be in %; do not add the unit.

In: Can you share its remaining at 1 h? I mean this compound: "C=C(C)CCSP(=O)([O-])OP(=O)([O-])[O-].[Na+].[Na+].[Na+]"
Out: 27
